System: A498 renal
Experiment summary: NCI tumour cell line growth inhibition, 48 h
# TGI per record follows
Response body: numeric value in µM, unit text excluded.

>>> measured("COc1cc2ncn(-c3cc(OCc4ccccc4Cl)c(C(N)=O)s3)c2cc1OC")
3.21

query: Name the reported TGI value associated with the molecule C=C1C(=O)O[C@H]2[C@H]1CC/C(CNC(=O)c1c[nH]c3ccc(F)cc13)=C\CC[C@@]1(C)O[C@@H]21
result: 11.9

###

Recorded TGI values for a group of molecules are listed next.
Test system: SR leukemia
Experiment summary: NCI tumour cell line growth inhibition, 48 h

>>> measured("Cc1ccc(S(=O)(=O)N2CCN3C(=O)c4ccccc4C32c2ccc(F)cc2)cc1 (configuration not stated)")
"52.8 µM"

query: Could you tell me which TGI is on file for COc1ccc(C(=O)Nc2ncc(Cc3ccc(Cl)cc3)s2)cc1 ?
result: > 70.4 µM

query: What value of TGI has been reported for the following molecule? CCSc1nnc(CSc2nc(-c3ccccc3)c(-c3ccccc3)[nH]2)n1-c1ccccc1
result: 48.5 µM

query: Consider the molecule shown here: COc1cc(C(=O)NC2c3ccccc3-c3ccccc32)c(N)cc1OCc1ccccc1 What is its recorded TGI?
result: > 100 µM

query: What does the data say about its TGI? Entry: COc1cc(COC(=O)N[C@H](C(=O)O)C(C)(C)C)c([N+](=O)[O-])cc1OC
result: > 100 µM

query: Bench note: what TGI did Cc1ccccc1C1OC1C(=O)c1ccccc1N (configuration not stated) show?
result: > 100 µM

Hey, just so you know, these numbers are from PubChem BioAssay (NCI).
